- Tested on: HEK-293T
- assay.summary: Multiplex assay against HEK293T
- Type: toxicity, cell-based
- stated.conditions: human, 24 h, 1 µM, compound concentration 1 uM, replicate 2
Measured Population Mitochondria Different-Phenotype (%) values are reported for all entries that follow.
The answer is to be given in %; state only the numeric part.

Previously resolved entries follow.
- Cc1onc(-c2ccccc2Cl)c1C(=O)N(C)c1ccc(Cl)cc1: 44
- Cc1cnc(-c2cc(N3CCN(C(=O)CCS(C)(=O)=O)CC3)ncc2Cl)c(C)c1: 36
- C[C@H](N)COC(=O)[C@@H](CCCCN)NC(=O)Cc1c(-c2ccc3ccccc3c2)[nH]c2c1ccc1ccccc12: 47

# input for lookup
Input line: Please report Population Mitochondria Different-Phenotype (%) with HEK-293T for item COc1ccccc1N1CCN(C[C@@H](C(=O)NC(C)(C)C)c2ccccc2)CC1.Cl.Cl .
Output line: 54

Data origin, for the record: ChEMBL document CHEMBL5058577
